# testSystem: CK1γ2 (Homo sapiens, UniProt P78368)
# Sequence (P78368 whole entry): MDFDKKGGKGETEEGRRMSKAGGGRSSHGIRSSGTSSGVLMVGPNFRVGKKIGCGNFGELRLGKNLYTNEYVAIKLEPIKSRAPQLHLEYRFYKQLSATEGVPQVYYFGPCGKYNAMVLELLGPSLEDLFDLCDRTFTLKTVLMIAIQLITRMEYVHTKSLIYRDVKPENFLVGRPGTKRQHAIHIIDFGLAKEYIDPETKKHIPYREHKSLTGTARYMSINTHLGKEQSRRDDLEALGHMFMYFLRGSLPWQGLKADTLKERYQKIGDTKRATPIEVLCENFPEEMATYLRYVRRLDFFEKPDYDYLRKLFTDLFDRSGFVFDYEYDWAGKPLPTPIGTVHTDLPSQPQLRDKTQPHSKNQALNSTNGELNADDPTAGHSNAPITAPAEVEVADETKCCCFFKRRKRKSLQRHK
# assayExplanation: Kinase profiling (radiometric filter-binding)
# Assay type: biochemical
# assayConditions: CK1γ2, 1 µM inhibitor; read-out: Residual activity, %
Square brackets hold non-standard residues; d marks the D form. Peptide text beside a SMILES is read from it. * marks the point of attachment. X3 = O=C(CCCCCNCc1nc2c(sc3cc(Br)cnc32)c(=O)[nH]1)*
Parameter remaining activity at 1 µM: see the listing below.
Report the value in % with no unit label.

The cases that follow already have their remaining activity at 1 µM on record.
compound: N=C(N)NCCC[C@@H](NC(=O)CNC(=O)[C@@H](CCCNC(=N)N)NC(=O)[C@@H](CCCNC(=N)N)NC(=O)Cn1cc(CNCc2nc3c(sc4ccc(Br)cc43)c(=O)[nH]2)nn1)C(=O)N[C@H](CCCCN)C(N)=O
measurement: 88

compound: N=C(N)NCCC[C@@H](NC(=O)CNC(=O)[C@@H](CCCNC(=N)N)NC(=O)[C@@H](CCCNC(=N)N)NC(=O)CCCCCCCNCc1nc2c(sc3cc(Br)cnc32)c(=O)[nH]1)C(=O)N[C@H](CCCCN)C(N)=O
measurement: 117

Ask: Quote remaining activity at 1 µM reported for "N=C(N)NCCC[C@@H](NC(=O)CCCCCNC(=O)Cn1cnc2c(I)c(I)c(I)c(I)c21)C(=O)N[C@H](CCCNC(=N)N)C(=O)N[C@H](CCCNC(=N)N)C(=O)N[C@H](CCCNC(=N)N)C(=O)N[C@H](CCCNC(=N)N)C(=O)N[C@H](CCCNC(=N)N)C(=O)N[C@H](CCCCN)C(N)=O" please.
Reply: 45

Ask: Quote remaining activity at 1 µM reported for N=C(N)NCCC[C@@H](NC(=O)CCCCCNCc1nc2c(sc3cc(Br)cnc32)c(=O)[nH]1)C(=O)N[C@H](CCCNC(=N)N)C(=O)N[C@H](CCCNC(=N)N)C(=O)N[C@H](CCCNC(=N)N)C(=O)N[C@H](CCCNC(=N)N)C(=O)N[C@H](CCCNC(=N)N)C(=O)N[C@H](CCCCN)C(N)=O [ARC-3126, BPTP-Ahx-(D-Arg)6-D-Lys-NH2] (X3-[dR][dR][dR][dR][dR][dR][dK]-NH2) please.
Reply: 66

Ask: Quote remaining activity at 1 µM reported for "N=C(N)NCCC[C@@H](NC(=O)CNC(=O)[C@@H](CCCNC(=N)N)NC(=O)[C@@H](CCCNC(=N)N)NC(=O)CCCCCCCNCc1nc2c(sc3ccc(Br)cc32)c(=O)[nH]1)C(=O)N[C@H](CCCCN)C(N)=O" please.
Reply: 116

---

# testSystem: DYRK2 (Homo sapiens, UniProt Q92630)
# Sequence (Q92630 1-601): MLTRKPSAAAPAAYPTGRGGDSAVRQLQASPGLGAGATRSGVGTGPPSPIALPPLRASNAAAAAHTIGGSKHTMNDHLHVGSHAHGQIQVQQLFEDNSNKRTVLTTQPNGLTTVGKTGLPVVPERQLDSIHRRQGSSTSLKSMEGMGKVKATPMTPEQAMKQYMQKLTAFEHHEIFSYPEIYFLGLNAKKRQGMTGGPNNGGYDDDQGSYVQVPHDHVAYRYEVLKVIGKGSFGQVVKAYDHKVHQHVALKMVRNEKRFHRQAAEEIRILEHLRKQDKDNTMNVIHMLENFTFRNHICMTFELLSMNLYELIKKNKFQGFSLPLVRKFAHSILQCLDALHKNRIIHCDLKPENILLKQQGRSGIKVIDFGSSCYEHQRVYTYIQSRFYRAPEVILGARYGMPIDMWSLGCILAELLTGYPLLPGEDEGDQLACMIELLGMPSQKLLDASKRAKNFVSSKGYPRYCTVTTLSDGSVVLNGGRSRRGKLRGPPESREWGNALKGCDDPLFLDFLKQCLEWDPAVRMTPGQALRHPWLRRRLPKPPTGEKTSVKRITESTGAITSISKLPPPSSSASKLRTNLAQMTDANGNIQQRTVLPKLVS
# assayExplanation: Kinase profiling (radiometric filter-binding)
# Type: biochemical
# assayConditions: DYRK2, 1 µM inhibitor; read-out: Residual activity, %
Square brackets hold non-standard residues; d marks the D form. Peptide text beside a SMILES is read from it. * marks the point of attachment. X3 = O=C(CCCCCNCc1nc2c(sc3cc(Br)cnc32)c(=O)[nH]1)*
readoutType: remaining activity at 1 µM (%)
Report the value in % with no unit label.

molecule: N=C(N)NCCC[C@@H](NC(=O)CCCCCNCc1nc2c(sc3cc(Br)cnc32)c(=O)[nH]1)C(=O)N[C@H](CCCNC(=N)N)C(=O)N[C@H](CCCNC(=N)N)C(=O)N[C@H](CCCNC(=N)N)C(=O)N[C@H](CCCNC(=N)N)C(=O)N[C@H](CCCNC(=N)N)C(=O)N[C@H](CCCCN)C(N)=O [ARC-3126, BPTP-Ahx-(D-Arg)6-D-Lys-NH2] (X3-[dR][dR][dR][dR][dR][dR][dK]-NH2)
testSystem: DYRK2 (Homo sapiens, UniProt Q92630)
remaining activity at 1 µM (%): 88

Moving on to the next molecule.
Ask: Quote remaining activity at 1 µM reported for "N=C(N)NCCC[C@@H](NC(=O)CNC(=O)[C@@H](CCCNC(=N)N)NC(=O)[C@@H](CCCNC(=N)N)NC(=O)Cn1cc(CNCc2nc3c(sc4ccc(Br)cc43)c(=O)[nH]2)nn1)C(=O)N[C@H](CCCCN)C(N)=O" please.
Reply: 83

---

Parameter remaining activity at 1 µM: see the listing below.
# testSystem: MNK2 (Homo sapiens, UniProt Q9HBH9)
# Sequence (Q9HBH9 whole entry): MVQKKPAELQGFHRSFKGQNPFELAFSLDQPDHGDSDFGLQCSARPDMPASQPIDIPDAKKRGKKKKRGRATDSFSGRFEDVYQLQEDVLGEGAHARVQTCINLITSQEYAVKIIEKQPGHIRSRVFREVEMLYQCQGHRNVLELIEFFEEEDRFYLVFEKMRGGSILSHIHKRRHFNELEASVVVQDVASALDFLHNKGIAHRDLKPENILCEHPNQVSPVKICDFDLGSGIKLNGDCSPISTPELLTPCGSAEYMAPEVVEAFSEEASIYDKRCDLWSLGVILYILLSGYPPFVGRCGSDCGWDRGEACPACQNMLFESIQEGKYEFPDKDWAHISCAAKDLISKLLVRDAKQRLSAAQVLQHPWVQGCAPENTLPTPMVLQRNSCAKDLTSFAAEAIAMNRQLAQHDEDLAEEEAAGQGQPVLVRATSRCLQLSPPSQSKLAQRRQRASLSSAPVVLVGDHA
# assayExplanation: Kinase profiling (radiometric filter-binding)
# Type: biochemical
# assayConditions: MNK2, 1 µM inhibitor; read-out: Residual activity, %
Square brackets hold non-standard residues; d marks the D form. Peptide text beside a SMILES is read from it. * marks the point of attachment. X3 = O=C(CCCCCNCc1nc2c(sc3cc(Br)cnc32)c(=O)[nH]1)*
Report the value in % with no unit label.

molecule: N=C(N)NCCC[C@@H](NC(=O)CCCCCNCc1nc2c(sc3cc(Br)cnc32)c(=O)[nH]1)C(=O)N[C@H](CCCNC(=N)N)C(=O)N[C@H](CCCNC(=N)N)C(=O)N[C@H](CCCNC(=N)N)C(=O)N[C@H](CCCNC(=N)N)C(=O)N[C@H](CCCNC(=N)N)C(=O)N[C@H](CCCCN)C(N)=O [ARC-3126, BPTP-Ahx-(D-Arg)6-D-Lys-NH2] (X3-[dR][dR][dR][dR][dR][dR][dK]-NH2)
unitsSymbol: %
remaining activity at 1 µM: 84
//
molecule: N=C(N)NCCC[C@@H](NC(=O)CCCCCNC(=O)Cn1cnc2c(I)c(I)c(I)c(I)c21)C(=O)N[C@H](CCCNC(=N)N)C(=O)N[C@H](CCCNC(=N)N)C(=O)N[C@H](CCCNC(=N)N)C(=O)N[C@H](CCCNC(=N)N)C(=O)N[C@H](CCCNC(=N)N)C(=O)N[C@H](CCCCN)C(N)=O
unitsSymbol: %
remaining activity at 1 µM: 19

Ask: State remaining activity at 1 µM on MNK2 (Homo sapiens, UniProt Q9HBH9). Entry: "N=C(N)NCCC[C@@H](NC(=O)CNC(=O)[C@@H](CCCNC(=N)N)NC(=O)[C@@H](CCCNC(=N)N)NC(=O)Cn1cc(CNCc2nc3c(sc4ccc(Br)cc43)c(=O)[nH]2)nn1)C(=O)N[C@H](CCCCN)C(N)=O"
Reply: 96

---

# testSystem: PIM2 (Homo sapiens, UniProt Q9P1W9)
# Sequence (Q9P1W9 whole entry): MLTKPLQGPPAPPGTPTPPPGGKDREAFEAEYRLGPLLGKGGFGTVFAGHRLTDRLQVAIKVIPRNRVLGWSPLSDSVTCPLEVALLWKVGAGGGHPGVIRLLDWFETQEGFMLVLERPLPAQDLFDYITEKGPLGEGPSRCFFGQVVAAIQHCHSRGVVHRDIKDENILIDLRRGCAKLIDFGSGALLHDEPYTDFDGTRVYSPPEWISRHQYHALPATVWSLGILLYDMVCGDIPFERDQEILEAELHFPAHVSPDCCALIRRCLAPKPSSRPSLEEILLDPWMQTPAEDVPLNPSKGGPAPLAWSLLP
# assayExplanation: Kinase profiling (radiometric filter-binding)
# Assay type: biochemical
# assayConditions: PIM2, 1 µM inhibitor; read-out: Residual activity, %
Square brackets hold non-standard residues; d marks the D form. Peptide text beside a SMILES is read from it. * marks the point of attachment. X3 = O=C(CCCCCNCc1nc2c(sc3cc(Br)cnc32)c(=O)[nH]1)*
Quick rule for you: remaining activity at 1 µM under 20% gets label 1, anything else gets label 0.

Use the examples below as a reference point.
compound: N=C(N)NCCC[C@@H](NC(=O)CNC(=O)[C@@H](CCCNC(=N)N)NC(=O)[C@@H](CCCNC(=N)N)NC(=O)CCCCCCCNCc1nc2c(sc3cc(Br)cnc32)c(=O)[nH]1)C(=O)N[C@H](CCCCN)C(N)=O [Compound 1, BPTP-Aoc-(D-Arg)2-Gly-D-Arg-D-Lys-NH2]
assignedClass: label 0
//
compound: N=C(N)NCCC[C@@H](NC(=O)CNC(=O)[C@@H](CCCNC(=N)N)NC(=O)[C@@H](CCCNC(=N)N)NC(=O)Cn1cc(CNCc2nc3c(sc4ccc(Br)cc43)c(=O)[nH]2)nn1)C(=O)N[C@H](CCCCN)C(N)=O [Compound 3, BBTP-Amt-(D-Arg)2-Gly-D-Arg-D-Lys-NH2]
assignedClass: label 1
//
compound: N=C(N)NCCC[C@@H](NC(=O)CCCCCNC(=O)Cn1cnc2c(I)c(I)c(I)c(I)c21)C(=O)N[C@H](CCCNC(=N)N)C(=O)N[C@H](CCCNC(=N)N)C(=O)N[C@H](CCCNC(=N)N)C(=O)N[C@H](CCCNC(=N)N)C(=O)N[C@H](CCCNC(=N)N)C(=O)N[C@H](CCCCN)C(N)=O [ARC-3125, TIBI-CH2-C(=O)-Ahx-(D-Arg)6-D-Lys-NH2]
assignedClass: label 1
//
compound: N=C(N)NCCC[C@@H](NC(=O)CCCCCNCc1nc2c(sc3cc(Br)cnc32)c(=O)[nH]1)C(=O)N[C@H](CCCNC(=N)N)C(=O)N[C@H](CCCNC(=N)N)C(=O)N[C@H](CCCNC(=N)N)C(=O)N[C@H](CCCNC(=N)N)C(=O)N[C@H](CCCNC(=N)N)C(=O)N[C@H](CCCCN)C(N)=O [ARC-3126, BPTP-Ahx-(D-Arg)6-D-Lys-NH2] (X3-[dR][dR][dR][dR][dR][dR][dK]-NH2)
assignedClass: label 1

Proceed to the following item.
Ask: Regarding N=C(N)NCCC[C@@H](NC(=O)CNC(=O)[C@@H](CCCNC(=N)N)NC(=O)[C@@H](CCCNC(=N)N)NC(=O)CCCCCCCNCc1nc2c(sc3ccc(Br)cc32)c(=O)[nH]1)C(=O)N[C@H](CCCCN)C(N)=O [Compound 2, BBTP-Aoc-(D-Arg)2-Gly-D-Arg-D-Lys-NH2] , kindly confirm whether its remaining activity at 1 µM is beneath 20%.
Reply: label 1

Values from paper PMC8307404
